All values here come from ChEMBL document CHEMBL3431459.

# Assay System: Carnitine O-palmitoyltransferase 1, liver isoform (Homo sapiens)
# Sequence (P50416 whole entry, canonical isoform): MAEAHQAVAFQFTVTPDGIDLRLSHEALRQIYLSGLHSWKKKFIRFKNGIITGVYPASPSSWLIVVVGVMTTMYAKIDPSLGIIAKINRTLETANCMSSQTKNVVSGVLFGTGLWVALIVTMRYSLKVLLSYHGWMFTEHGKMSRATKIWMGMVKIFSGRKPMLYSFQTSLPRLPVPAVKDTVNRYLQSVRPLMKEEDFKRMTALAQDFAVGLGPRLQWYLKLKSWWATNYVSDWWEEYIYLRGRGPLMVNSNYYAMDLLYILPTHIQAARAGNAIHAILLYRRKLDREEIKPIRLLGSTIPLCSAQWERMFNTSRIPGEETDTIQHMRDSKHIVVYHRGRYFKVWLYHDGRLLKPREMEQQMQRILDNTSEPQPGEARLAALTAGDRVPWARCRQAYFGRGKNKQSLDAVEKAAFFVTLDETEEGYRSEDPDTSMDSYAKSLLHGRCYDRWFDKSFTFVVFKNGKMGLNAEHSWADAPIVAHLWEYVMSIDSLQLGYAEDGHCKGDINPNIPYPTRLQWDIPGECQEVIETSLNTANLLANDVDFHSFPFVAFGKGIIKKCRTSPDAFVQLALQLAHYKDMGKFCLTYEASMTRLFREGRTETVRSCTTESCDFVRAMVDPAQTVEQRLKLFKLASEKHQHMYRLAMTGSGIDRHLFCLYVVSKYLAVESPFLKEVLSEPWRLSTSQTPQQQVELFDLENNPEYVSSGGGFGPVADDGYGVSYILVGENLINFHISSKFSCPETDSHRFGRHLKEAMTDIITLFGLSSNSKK
# Assay Details: SUPPLEMENTARY: Inhibition of Carnitine palmitoyltransferase 1, liver isoform
Measured pIC50 by item
Convention used: pIC50 is expressed as -log10 of the molar concentration.

- Compound: "COc1ccc(Cl)cc1S(=O)(=O)N1CCCc2ccc(NC(=O)c3ccc(CC(=O)O)cc3)cc21"
  pIC50: 6.41
- Compound: "NC(=O)c1n[nH]c2cc(-c3noc([C@H]4CCCCN4C(=O)COc4ccccc4)n3)ccc12"
  pIC50: 7.20
- Compound: "COc1ccc(Cl)cc1S(=O)(=O)c1cn(CSC)c2ccc(C(=O)Nc3ccccc3)cc12"
  pIC50: 6.73

Data request: Look up pIC50 for this compound: `COc1ccc(Cl)cc1CN1C(=O)CSc2ccc(C(=O)Nc3nc(CC(=O)O)cs3)cc21`
Data returned: 6.90

Data request: Query (compound): `COc1ccc(Cl)cc1S(=O)(=O)N1COc2c(F)cc(C(=O)Nc3ccc(CC(=O)O)cc3)cc21` ; field requested: pIC50
Data returned: 6.81
